Tested on: L. donovani HU3 strain in mouse peritoneal macrophages
test method notes: Assay for proliferation of Leishmania parasites in mouse peritoneal macrophages
Assay type: cell-based, Leishmania donovani
settings: Leishmania donovani, Peritoneal macrophage, read-out: L. donavani Macrophage EC50
quantity kind: EC50 (µM)
Supply the numeric figure in µM, leaving out any unit text.

COc1ccc(-c2cnc3nc(-c4cc(NC(=O)c5ccco5)ccc4Cl)[nH]c3c2)cc1S(=O)(=O)N1CCCC1: 1.05
O=C(Nc1ccc(C(F)(F)F)cc1)Nc1ccc(F)c(-c2nc3ncc(-c4ccc(N5CCCCC5)cc4)cc3o2)c1: 5.9

Now for another entry.
Summary for this compound, CNc1ccc(-c2cnc3nc(-c4cc(NC(=O)c5ccc(CN(C)C)o5)ccc4Cl)[nH]c3c2)cc1 : EC50 is 7.2

###

Readings of EC50 for the listed molecules
System: L. donovani HU3 strain in mouse peritoneal macrophages
test method notes: Assay for proliferation of Leishmania parasites in mouse peritoneal macrophages
Assay type: cell-based, Leishmania donovani
settings: Leishmania donovani, Peritoneal macrophage, read-out: L. donavani Macrophage EC50
Supply the numeric figure in µM, leaving out any unit text.

Known EC50 results, listed for orientation:
Cc1ccc(Nc2ccc(Cl)c(-c3nc4ncc(C)cc4[nH]3)c2)nc1: 13.5
C[Si](C)(C)CCOCn1cnc(-c2cnc3nc(-c4cc(NC(=O)N5CCCC5)ccc4Cl)[nH]c3c2)c1: 0.181
Cc1cnc2nc(-c3cc(NC(=O)c4ccco4)ccc3Cl)[nH]c2c1: 9
Cc1cncc(C(=O)Nc2ccc(Cl)c(-c3nc4ncc(C)cc4[nH]3)c2)c1: 11.7
CCOC(=O)Nc1ccc(Cl)c(-c2nc3ncc(C#N)cc3[nH]2)c1: 8.1

Summary for this molecule, COC(=O)Nc1ccc(-c2cnc3nc(-c4cc(NC(=O)OC(C)C)ccc4Cl)[nH]c3c2)cc1 : EC50 is 0.23

Summary for this molecule, Cc1cnc2nc(-c3cc(NC(=O)N4CC[C@@H](F)C4)ccc3Cl)[nH]c2c1 : EC50 is 9.7

Summary for this molecule, CC(C)(CN)c1ccc(-c2cnc3nc(-c4cc(NC(=O)N5CCCC5)ccc4Cl)[nH]c3c2)cc1 : EC50 is 4.7

Summary for this molecule, Cc1cnc2nc(-c3cc(NC(=O)Nc4ccc(C(F)(F)F)cc4)ccc3Cl)[nH]c2c1 : EC50 is 23.1

###

System: L. donovani HU3 strain in mouse peritoneal macrophages
test method notes: Assay for proliferation of Leishmania parasites in mouse peritoneal macrophages
Assay type: cell-based, Leishmania donovani
settings: Leishmania donovani, Peritoneal macrophage, read-out: L. donavani Macrophage EC50
pEC50: −log10 of the molar value.
quantity kind: pEC50

Known pEC50 results, listed for orientation:
CN(C)CCOc1ccc(-c2cnc3nc(-c4cc(NC(=O)c5ccco5)ccc4Cl)[nH]c3c2)cc1: 5.56
Cc1cnc2nc(-c3cc(NC(=O)c4cccc(N5CCCCC5)c4)ccc3Cl)[nH]c2c1: < 4.30
Cc1cnc2nc(-c3cc(NS(=O)(=O)c4cccs4)ccc3Cl)[nH]c2c1: < 4.30

Summary for this compound, Cc1n[nH]cc1-c1cnc2nc(-c3cc(NC(=O)Nc4ccc(C(F)(F)F)cc4)ccc3F)oc2c1 : pEC50 is 5.32

Summary for this compound, COc1ccc(C(=O)Nc2ccc(Cl)c(-c3nc4ncc(C)cc4[nH]3)c2)c(OC)c1 : pEC50 is 5.06

Summary for this compound, Cc1cnc2nc(-c3cc(NC(=O)c4ncco4)ccc3Cl)[nH]c2c1 : pEC50 is < 4.30

Summary for this compound, Cc1cnc2nc(-c3cc(NC(=O)Cc4ccc(F)cc4F)ccc3Cl)[nH]c2c1 : pEC50 is < 4.38

Summary for this compound, NS(=O)(=O)c1ccc(-c2cnc3nc(-c4cc(NC(=O)c5ccco5)ccc4Cl)[nH]c3c2)cc1 : pEC50 is < 4.41

###

Readings of EC50 for the listed compounds
System: L. donovani HU3 strain in mouse peritoneal macrophages
test method notes: Assay for proliferation of Leishmania parasites in mouse peritoneal macrophages
Type: cell-based, Leishmania donovani
settings: Leishmania donovani, Peritoneal macrophage, read-out: L. donavani Macrophage EC50
From the text: Assay for Proliferation of Leishmania Parasites The activity of a compound according to the present invention for inhibition of parasitemai can be assessed by the parasite proliferation assay. The assay measures the increase in the parasite number in the assayed plate well using a DNA intercalating dye, SYBR Green I® dye (INVITROGEN) to stain Leishmania cell nuclei. It is understood that the assays illustrate the invention without in any way limiting the scope of the invention. […]
Supply the numeric figure in µM, leaving out any unit text.

Known EC50 results, listed for orientation:
Cc1cnc2nc(-c3cc(NC(=O)c4nc(C)cs4)ccc3Cl)[nH]c2c1: 18.5
CNC(=O)c1ccc(-c2cnc3nc(-c4cc(NC(=O)c5ccco5)ccc4Cl)[nH]c3c2)cn1: 0.272
Cc1cnc2nc(-c3cc(NC(=O)N4CCCC4)ccc3Cl)[nH]c2c1: 18.8

Now for another entry.
Lab note: compound Cc1cnc2nc(-c3cc(NC(=O)OCC(C)C)ccc3Cl)[nH]c2c1 tested on L. donovani HU3 strain in mouse peritoneal macrophages; recorded EC50 was 17.3

###

Test system: L. donovani HU3 strain in mouse peritoneal macrophages
test method notes: Assay for proliferation of Leishmania parasites in mouse peritoneal macrophages
Assay type: cell-based, Leishmania donovani
settings: Leishmania donovani, Peritoneal macrophage, read-out: L. donavani Macrophage EC50
quantity kind: pEC50
The value called pEC50 is obtained by taking minus log10 of the concentration in mol/L.

Known pEC50 results, listed for orientation:
O=C(Nc1ccc(Cl)c(-c2nc3ncc(C4=CCNCC4)cc3[nH]2)c1)c1ccco1 [Compound 70]: 4.68
O=C1Cc2cc(-c3cnc4nc(-c5cc(NC(=O)c6ccco6)ccc5Cl)[nH]c4c3)ccc2N1 [Compound 43]: 5.16
COC(=O)Nc1ccc(-c2cnc3nc(-c4cc(NC(=O)Nc5ccc(C(F)(F)F)cc5)ccc4F)oc3c2)cc1 [Compound 402]: 5.00

Lab note: compound Cc1cnc2nc(-c3cc(NC(=O)N(C)C)ccc3Cl)[nH]c2c1 [Compound 243] tested on L. donovani HU3 strain in mouse peritoneal macrophages; recorded pEC50 was 4.40

Lab note: compound Cc1ccc(CC(=O)Nc2ccc(Cl)c(-c3nc4ncc(C)cc4[nH]3)c2)cc1 [Compound 167] tested on L. donovani HU3 strain in mouse peritoneal macrophages; recorded pEC50 was 4.79

###

Test system: Leishmania donovani axenic amastigote parasites
test method notes: Leishmania donovani axenic amastigote proliferation assay
Format: cell-based
settings: axenic amastigotes in vitro, read-out: L. donovani amastigotes EC50
Readings of EC50 for the listed compounds
Supply the numeric figure in µM, leaving out any unit text.

COc1cc(-c2cnc3nc(-c4cc(NC(=O)c5ccco5)ccc4Cl)[nH]c3c2)ccc1NC(=O)OC(C)(C)C: 0.6
Cc1cnc2nc(-c3cc(NC(=O)C4CCCC4)ccc3Cl)[nH]c2c1: 23.7
O=C(Nc1ccc(F)c(-c2nc3ncc(-c4ccc(OCCN5CCOCC5)cc4)cc3[nH]2)c1)N1CCCC1: 2.86

Lab note: compound CCOC(=O)Nc1ccc(Cl)c(-c2nc3ncc(C)cc3[nH]2)c1 tested on Leishmania donovani axenic amastigote parasites; recorded EC50 was 5.9

Lab note: compound Cc1cnc2nc(-c3cc(NC(=O)c4ccc(F)o4)ccc3Cl)[nH]c2c1 tested on Leishmania donovani axenic amastigote parasites; recorded EC50 was 1.88

Lab note: compound CC(C)(CN)c1ccc(-c2cnc3nc(-c4cc(NC(=O)N5CCCC5)ccc4Cl)[nH]c3c2)cc1 tested on Leishmania donovani axenic amastigote parasites; recorded EC50 was 9.6

Lab note: compound Cc1cnc2nc(-c3cc(NC(=O)c4csc(C)n4)ccc3Cl)[nH]c2c1 tested on Leishmania donovani axenic amastigote parasites; recorded EC50 was 5.5

Lab note: compound O=C(Nc1ccc(Cl)c(-c2nc3ncc(-c4cccnc4)cc3[nH]2)c1)c1ccco1 tested on Leishmania donovani axenic amastigote parasites; recorded EC50 was 0.134

Lab note: compound COc1ccc(-c2cnc3nc(-c4cc(NC(=O)c5ccco5)ccc4Cl)[nH]c3c2)cc1Cl tested on Leishmania donovani axenic amastigote parasites; recorded EC50 was 0.53

Lab note: compound COc1cccc(C(=O)Nc2ccc(Cl)c(-c3nc4ncc(C)cc4[nH]3)c2)c1 tested on Leishmania donovani axenic amastigote parasites; recorded EC50 was 21.4

Lab note: compound Cc1cnc2nc(-c3cc(NC(=O)c4ccno4)ccc3F)[nH]c2c1 tested on Leishmania donovani axenic amastigote parasites; recorded EC50 was 20

Lab note: compound O=C(Nc1ccc(Cl)c(-c2nc3ncc(-c4ccc(OCCCN5CCOCC5)cc4)cc3[nH]2)c1)N1CCCC1 tested on Leishmania donovani axenic amastigote parasites; recorded EC50 was 5.9

Lab note: compound O=C(Nc1ccc(Cl)c(-c2nc3ncc(-c4ccc(N5CCCC5)cc4)cc3[nH]2)c1)c1ccco1 tested on Leishmania donovani axenic amastigote parasites; recorded EC50 was 2.85

Lab note: compound COc1ncc(-c2cnc3nc(-c4cc(NC(=O)c5ccco5)ccc4Cl)[nH]c3c2)cn1 tested on Leishmania donovani axenic amastigote parasites; recorded EC50 was 0.45

Lab note: compound Cc1cnc2nc(-c3cc(NC(=O)C4CCCCO4)ccc3Cl)[nH]c2c1 (stereo not drawn) tested on Leishmania donovani axenic amastigote parasites; recorded EC50 was 22.1

Lab note: compound COc1ccc(-c2cnc3nc(-c4cc(NC(=O)c5ccco5)ccc4Cl)[nH]c3c2)cn1 tested on Leishmania donovani axenic amastigote parasites; recorded EC50 was 0.234

Lab note: compound COC(=O)Nc1ccc(-c2cnc3nc(-c4cc(NC(=O)N5CCC5)ccc4Cl)[nH]c3c2)cc1 tested on Leishmania donovani axenic amastigote parasites; recorded EC50 was 7.6

Hey, just so you know, these numbers are from patent US9233961B2.
